# ASSAY: Water solubility of the compound measured by UV-Visible spectral analysis
# Format: physicochemical
# TEST_SETTINGS: water; read-out: solubility
READOUT_KIND: solubility (µg/mL)

1) CN(C)CCCNC(=O)CCC(=O)OCCCCCCSc1ccc([N+](=O)[O-])c2nonc12 = 9000

* * *

# ASSAY: in vivo
# TEST_SETTINGS: Sprague-Dawley, rat, po, 80 mg/kg
# Description: Cmax in Sprague-Dawley rat at 80 mg/kg, po administered as single dose measured upto 48 hrs by LC-MS/MS analysis
READOUT_KIND: Cmax at 48 h

1) CN(C)CCCNC(=O)CCC(=O)OCCCCCCSc1ccc([N+](=O)[O-])c2nonc12 = 1810 ng/mL

* * *

# ASSAY: MRT (0 to infinity) in Sprague-Dawley rat at 80 mg/kg, po administered as single dose measured upto 48 hrs by LC-MS/MS analysis
# TEST_SETTINGS: in vivo
READOUT_KIND: MRT inf at 48 h (h)

1. CN(C)CCCNC(=O)CCC(=O)OCCCCCCSc1ccc([N+](=O)[O-])c2nonc12 = 6.54

* * *

# SUBJECT_OF_TEST: UniProtKB P09211
# Sequence (P09211 whole entry): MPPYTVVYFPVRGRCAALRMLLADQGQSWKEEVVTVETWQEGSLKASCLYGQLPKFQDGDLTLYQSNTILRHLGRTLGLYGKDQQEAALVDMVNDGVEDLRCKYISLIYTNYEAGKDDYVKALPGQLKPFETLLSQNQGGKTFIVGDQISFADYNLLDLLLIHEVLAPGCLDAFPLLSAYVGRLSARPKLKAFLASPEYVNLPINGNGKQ
# ASSAY: Time dependent inhibition of GSTP1-1 (unknown origin) assessed as inhibition constant using reduced GSH and CDNB as substrate by spectrophotometric method
READOUT_KIND: Ki (µM)

1) CN(C)CCCNC(=O)CCC(=O)OCCCCCCSc1ccc([N+](=O)[O-])c2nonc12 = 0.17

* * *

# ASSAY: MRT (0 to t) in Sprague-Dawley rat at 80 mg/kg, po administered as single dose measured upto 48 hrs by LC-MS/MS analysis
# TEST_SETTINGS: in vivo
READOUT_KIND: MRT last at 48 h (h)

1. CN(C)CCCNC(=O)CCC(=O)OCCCCCCSc1ccc([N+](=O)[O-])c2nonc12 = 6.35

* * *

# System: HOS
# ASSAY: Antiproliferative activity against human HOS cells assessed as inhibition of cell proliferation incubated for 72 hrs by MTT assay
# Type: functional, cell-based
The threshold is 2 µM. Values of IC50 beneath it are tagged condition met; values meeting or exceeding it are tagged condition not met.

1) Cc1ccccc1NC(=O)CCC(=O)OCCCCCCSc1ccc([N+](=O)[O-])c2nonc12 = condition not met
2) O=C(CCC(=O)OCCCCCCSc1ccc([N+](=O)[O-])c2nonc12)NCCN1CCOCC1 = condition met
3) O=C(CCC(=O)OCCCCCCSc1ccc([N+](=O)[O-])c2nonc12)Nc1ccc(F)cc1 = condition not met
4) CN(C)CCCNC(=O)CCC(=O)OCCCCCCSc1ccc([N+](=O)[O-])c2nonc12 = condition met
5) O=C(CCC(=O)N1CCOCC1)OCCCCCCSc1ccc([N+](=O)[O-])c2nonc12 = condition met
6) CCN(CC)CCCNC(=O)CCC(=O)OCCCCCCSc1ccc([N+](=O)[O-])c2nonc12 = condition not met
7) COc1ccccc1NC(=O)CCC(=O)OCCCCCCSc1ccc([N+](=O)[O-])c2nonc12 = condition not met
8) O=C(CCC(=O)N1CCCCC1)OCCCCCCSc1ccc([N+](=O)[O-])c2nonc12 = condition met
9) O=[N+]([O-])c1ccc(SCCCCCCO)c2nonc12 = condition met
10) Cc1ccc(NC(=O)CCC(=O)OCCCCCCSc2ccc([N+](=O)[O-])c3nonc23)cc1 = condition not met
11) O=C(CCC(=O)OCCCCCCSc1ccc([N+](=O)[O-])c2nonc12)Nc1ccc(Br)cc1 = condition not met
12) O=C(CCC(=O)OCCCCCCSc1ccc([N+](=O)[O-])c2nonc12)Nc1ccc(F)c(Cl)c1 = condition not met
13) CN(C)CCNC(=O)CCC(=O)OCCCCCCSc1ccc([N+](=O)[O-])c2nonc12 = condition not met
14) O=C(CCC(=O)OCCCCCCSc1ccc([N+](=O)[O-])c2nonc12)Nc1ccccc1 = condition not met
15) O=C(CCC(=O)OCCCCCCSc1ccc([N+](=O)[O-])c2nonc12)NCCN1CCCC1 = condition not met
16) O=C(CCC(=O)OCCCCCCSc1ccc([N+](=O)[O-])c2nonc12)Nc1ccccc1F = condition not met
17) O=C(CCC(=O)OCCCCCCSc1ccc([N+](=O)[O-])c2nonc12)Nc1cccc(Cl)c1 = condition met
18) COc1ccc(NC(=O)CCC(=O)OCCCCCCSc2ccc([N+](=O)[O-])c3nonc23)cc1 = condition met
19) O=C(CCC(=O)OCCCCCCSc1ccc([N+](=O)[O-])c2nonc12)Nc1ccc(C(F)(F)F)cc1 = condition not met
20) O=C(O)CCC(=O)OCCCCCCSc1ccc([N+](=O)[O-])c2nonc12 = condition not met
21) COc1ccc(NC(=O)CCC(=O)OCCCCCCSc2ccc([N+](=O)[O-])c3nonc23)cc1OC = condition met
